pIC50: −log10 of the molar value.
// compounds with reported pIC50 on Cytochrome P450 2C9 (Homo sapiens), multi-publication
reported-endpoint: pIC50

compound-structure-string | reported-endpoint | recorded-result
O=S(=O)(C1CC1)N1CCC(Oc2ccc3c(c2)CCC2(CCN(C4CCC4)CC2)O3)CC1 | pIC50 | < 4.52
Nc1ncc(-c2cn(C34CC(F)(C3)C4)c([C@@H](O)C(F)(F)F)n2)cc1OC(F)(F)F | pIC50 | < 5.00
Cc1cccc(C)c1-c1cc(C)c2nc(Nc3ccc(OCCN4CCCC4)cc3)nnc2c1 | pIC50 | < 4.00
C[C@H](Nc1ncnc(N)c1C#N)c1nn2ccc(C#N)c2c(=O)n1-c1ccccc1 | pIC50 | < 4.60

====

pIC50: −log10 of the molar value.
// molecules with reported pIC50 on Cytochrome P450 2C9 (Homo sapiens), multi-publication

compound-structure-string | pIC50
CCc1cnc(Oc2ccc(NC(=O)c3ncccc3N)cc2Cl)nc1 | < 4.52
CS(=O)(=O)c1ccc(C(=O)N2CCC(c3ccc(C(=O)NC(=N)N)cc3C(F)(F)F)CC2)cc1 | < 4.52
Nc1nc2ccc(S(=O)(=O)Cc3ccccc3)cc2s1 | < 4.60
C[C@@H]1Cc2c([nH]c3cc(F)c(F)cc23)[C@]2(N1)C(=O)Nc1ccc(Cl)cc12 | < 5.00

====

// compounds with reported pIC50 on Cytochrome P450 2C9 (Homo sapiens, UniProt P11712), multi-publication
pIC50: −log10 of the molar value.

compound | pIC50
CN(C)CCS(=O)(=O)CC[C@@H]1OCC[C@@]2(S(=O)(=O)c3ccc(Cl)cc3)c3c(F)ccc(F)c3OC[C@@H]12 | < 4.70
CCOC(=O)N(Cc1ccccc1-c1ccccc1)[C@H]1CCNC1 | < 5.52
CCN1C(=O)N(c2c(F)c(OC)cc(OC)c2F)Cc2cnc3c(c21)CC(=O)N3 | < 4.60
COc1nc(-c2nc(Nc3cc(F)cc(C(F)(F)F)c3)n(C)n2)ccc1-n1cnc(C)c1 | 4.91
O=C(NCc1ccccc1OC(F)(F)F)N1CCC(c2ccncc2)C1 (configuration not stated) | < 6.52
O=C(c1ccccc1)N1CCc2oc(-c3ccc(F)cn3)nc2C1 | < 4.30
Nc1oncc1-c1ccsc1 | < 5.00
CCc1cc(CC[C@]2(C3CCCC3)CC(O)=C(Cc3nc4nc(C)cc(C)n4n3)C(=O)O2)cc(CC)n1 | < 4.52
Nc1nc2ccc(SC(F)(F)F)cc2s1 | < 4.60
Nc1nc2ccc(OCc3ccccc3)cc2s1 | < 4.60
O=C(Cn1cccnc1=O)Nc1ccc(C[C@@H]2CC[C@H]([C@H](O)c3ccccc3)N2)cc1 | < 4.00
O=C1CC(c2ccccc2)CC(O)=C1Sc1ccccc1Cl (configuration not stated) | < 5.30

====

// compounds with reported IC50 on Cytochrome P450 2C9 (Homo sapiens, UniProt P11712), multi-publication

compound | IC50
C[C@@H]1Cc2c(ccc3[nH]ncc23)[C@@H](c2c(F)cc(N3CCC4(CCN(C(=O)CN5Cc6cc7c(cc6C5)C(=O)N(C5CCC(=O)NC5=O)C7=O)CC4)CC3)cc2F)N1CC(F)F (some centres undefined) | > 10 µM
O=C1CC(c2c(Cl)cccc2Cl)CC(O)=C1Sc1ccccc1Cl (centres undefined) | > 5 µM
CN([C@@H]1CCc2c(c3ccncc3n2CC(=O)O)C1)S(=O)(=O)c1ccc(F)cc1 | > 30 µM
O=C1CCCN1Cc1ccc(-n2nc(C(F)(F)F)c3c2COCC3)cc1 | > 10 µM
O=C(NOCCO)c1ccc2cncn2c1Nc1ccc(I)cc1F | > 10 µM
O=C(c1ccccc1C(F)(F)F)N(CC1CCC1)[C@H]1CCNC1 | > 30 µM
Cc1nn(C2CCOCC2)c(NS(=O)(=O)c2ccc(C3CC3)cc2)c1C(=O)N[C@@H](C)C(C)(C)C | > 10 µM
C[C@@H]1C[C@H]2[C@@H]3CCC4=CC(=O)C=C[C@]4(C)C3=CC[C@]2(C)[C@@]1(O)C(=O)CO | > 50 µM
Cn1c(SCCCN2CCOC(c3ccc(C(F)(F)F)cc3)C2)nnc1-c1ccc(-c2ncco2)cc1 (stereo in doubt; 34) | > 3 µM
O=c1cc(/C=C/c2ccc(C(F)(F)F)cc2)c2cc(C(c3ccc(Cl)cc3)c3nccs3)ccc2[nH]1 (centres undefined) | > 10 µM
Cc1cc(C2C=CN=CN2)c(C)s1.Cl (racemic) | > 25 µM
CC(C)N1CCC(Oc2ccc3c(c2)cc2n3CCN(C)C2=O)CC1 | > 50 µM
CNC(=O)[C@@]12C[C@@H]1[C@@H](n1cnc3c(NC)nc(C#Cc4ccc(Br)s4)nc31)[C@H](O)[C@@H]2O | > 7 µM
NS(=O)(=O)CC(=O)NCCSc1nonc1/C(=N/O)Nc1cccc(Cl)c1 | > 10 µM
